// data source = paper PMC8472154

- System: S. aureus ATCC 6538
- protocol_details: Agar disc diffusion
- Type: cell-based, Staphylococcus aureus
- condition_context: 5 µL per 6 mm disc, 24 h, diameter including disc; chloramphenicol 30 μg/mL
Marks after values point to notes of the source that are not given here.
readout_label: Inhibition Zone S. aureus ATCC 6538

Measured Inhibition Zone S. aureus ATCC 6538, CC12CCC(CC1=O)C2(C)C (stereo not shown) : 10.5 ± 1.22 ^c mm

Entry O=C(N[C@H](CO)[C@H](O)c1ccc([N+](=O)[O-])cc1)C(Cl)Cl ; Inhibition Zone S. aureus ATCC 6538 = 10.16 ± 0.70 ^c mm

Sure, the documented Inhibition Zone S. aureus ATCC 6538 for CC12CCC(CC1)C(C)(C)O2 is 10.5 ± 0.70 ^c mm

Inhibition Zone S. aureus ATCC 6538 in this record for C=CC(C)(O)CCC=C(C)C (stereo not shown) : 12.83 ± 0.47 ^b,c mm

* * *

- measured_on: acetylcholinesterase (Homo sapiens, UniProt P22303)
- Sequence (P22303 32-614, species assumed): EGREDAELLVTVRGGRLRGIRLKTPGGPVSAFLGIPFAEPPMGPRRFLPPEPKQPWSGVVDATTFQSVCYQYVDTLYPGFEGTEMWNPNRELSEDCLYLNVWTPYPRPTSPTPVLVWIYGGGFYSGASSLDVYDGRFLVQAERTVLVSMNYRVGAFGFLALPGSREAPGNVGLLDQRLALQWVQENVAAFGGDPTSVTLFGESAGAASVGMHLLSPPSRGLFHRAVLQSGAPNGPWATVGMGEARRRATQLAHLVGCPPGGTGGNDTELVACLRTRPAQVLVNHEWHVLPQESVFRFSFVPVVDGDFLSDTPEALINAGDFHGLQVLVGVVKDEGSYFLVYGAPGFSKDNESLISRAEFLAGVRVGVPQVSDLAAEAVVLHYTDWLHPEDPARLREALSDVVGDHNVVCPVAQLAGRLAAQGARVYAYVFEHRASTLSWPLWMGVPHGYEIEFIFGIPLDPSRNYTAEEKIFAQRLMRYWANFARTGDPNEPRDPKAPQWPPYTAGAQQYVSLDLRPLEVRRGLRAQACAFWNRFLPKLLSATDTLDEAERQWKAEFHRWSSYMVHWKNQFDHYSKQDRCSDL
- protocol_details: biochemical
- Format: biochemical
readout_label: pIC50
As a rule, pIC50 stands for the negative log10 of the concentration, concentration in M.

In plain terms, CC12CCC(CC1)C(C)(C)O2 has a documented pIC50 of 2.93
